- assay: Comparison of bioavailability of Compound A and Trimethoprim (TMP) administered by i/v injection, dogs
- Type: in vivo
- test settings: male, beagle, serum, intravenous; dog M; 24 hours post inj.; i/v injection at 2 mg/kg; read-out: Serum conc. of TMP
property: concentration at 24 h

// returns reported concentration at 24 h for input COc1cc(Cc2cnc(N)nc2N)cc(OC)c1OC [TMP, trimethoprim]
0 ng/mL

---

- assay: Comparison of bioavailability of Compound A and Trimethoprim (TMP) administered by i/v injection, dogs
- Format: in vivo
- test settings: female, beagle, serum, intravenous; dog F; 7 hours post inj.; i/v injection at 2 mg/kg; read-out: Serum conc. of TMP
property: concentration at 7 h (ng/mL)
Please respond with the number in ng/mL and leave the unit unwritten.

// returns reported concentration at 7 h for input COc1cc(Cc2cnc(N)nc2N)cc(OC)c1OC
210
